- EXPERIMENTAL_TARGET: Tumour suppressor p53/oncoprotein Mdm2 (Homo sapiens, UniProt P04637+Q00987)
- Sequence (P04637 whole entry): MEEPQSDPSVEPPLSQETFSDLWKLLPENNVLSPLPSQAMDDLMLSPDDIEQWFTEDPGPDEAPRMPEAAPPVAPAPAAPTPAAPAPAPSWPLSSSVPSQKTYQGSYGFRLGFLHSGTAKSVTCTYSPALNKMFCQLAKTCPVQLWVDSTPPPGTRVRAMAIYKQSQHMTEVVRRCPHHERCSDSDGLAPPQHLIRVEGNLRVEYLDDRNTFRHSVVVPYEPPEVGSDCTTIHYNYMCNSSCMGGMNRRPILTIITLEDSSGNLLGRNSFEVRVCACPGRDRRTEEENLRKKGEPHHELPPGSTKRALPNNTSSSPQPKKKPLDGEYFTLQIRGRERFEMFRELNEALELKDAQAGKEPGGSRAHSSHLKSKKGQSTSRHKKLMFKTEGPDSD
- Sequence (Q00987 whole entry): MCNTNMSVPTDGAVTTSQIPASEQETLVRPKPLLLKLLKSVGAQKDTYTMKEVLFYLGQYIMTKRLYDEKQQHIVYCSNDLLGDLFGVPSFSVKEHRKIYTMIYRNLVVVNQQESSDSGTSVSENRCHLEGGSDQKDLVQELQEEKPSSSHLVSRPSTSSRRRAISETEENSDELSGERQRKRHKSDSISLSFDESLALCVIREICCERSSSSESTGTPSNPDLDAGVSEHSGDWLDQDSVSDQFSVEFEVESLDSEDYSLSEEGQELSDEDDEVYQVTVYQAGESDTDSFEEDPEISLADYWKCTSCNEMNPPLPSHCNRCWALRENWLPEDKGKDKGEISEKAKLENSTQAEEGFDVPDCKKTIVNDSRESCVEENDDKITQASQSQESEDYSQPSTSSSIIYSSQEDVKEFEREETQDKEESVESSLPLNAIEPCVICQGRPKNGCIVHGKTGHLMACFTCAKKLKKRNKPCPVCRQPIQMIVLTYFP
- ASSAY_INFO: Inhibition of p53 interaction to MDM2 (unknown origin) by HTRF assay in presence of 0.02% bovine serum albumin
- Format: protein assay
MEASURED_PARAMETER: IC50

[[record]]
smiles_record = "CC(C)(C)C[C@@H]1N[C@@H](C(=O)NCCCCO)[C@@H](c2cccc(Cl)c2)[C@@]1(C#N)c1ccc(Cl)cc1"
value = "0.309 µM"

[[record]]
smiles_record = "CC(C)(C)C[C@@H]1N[C@@H](C(=O)NCC[C@H](O)CO)[C@@H](c2cc(F)cc(Cl)c2)[C@@]1(C#N)c1ccc(Cl)cc1F"
value = "0.165 µM"

[[record]]
smiles_record = "Cc1ccc(F)cc1[C@@H]1NC(=O)C[C@H](c2cc(Cl)cnc2CC(C)(C)C(=O)O)[C@@]12C(=O)Nc1cc(Cl)ccc12"
value = "0.145 µM"

[[record]]
smiles_record = "Cc1ccc(F)cc1[C@H]1NC(=O)C=C(c2cccc(Cl)c2)[C@]12C(=O)Nc1cc(Cl)ccc12"
value = "0.066 µM"


----------
- EXPERIMENTAL_TARGET: Tumour suppressor p53/oncoprotein Mdm2 (Homo sapiens, UniProt P04637+Q00987)
- ASSAY_INFO: Inhibition of p53 interaction to MDM2 (unknown origin)
- Assay type: protein assay
pIC50: −log10 of the molar value.
Measured pIC50 by item
MEASURED_PARAMETER: pIC50

[[record]]
molecule = "CC(C)(C)c1ncc(C2=N[C@@](C)(c3ccc(Cl)cc3)[C@@](C)(c3ccc(Cl)cc3)N2C(=O)N2CCN(CCOCCO)CC2)cn1"
experimental_target = "Tumour suppressor p53/oncoprotein Mdm2 (Homo sapiens, UniProt P04637+Q00987)"
measured_parameter = "pIC50"
value = 7.51

[[record]]
molecule = "Cc1cccc([C@H]2N(CC(=O)O)C(=O)C[C@@H](c3cccc(Cl)c3)[C@]23C(=O)Nc2cc(Cl)ccc23)c1 (racemic)"
experimental_target = "Tumour suppressor p53/oncoprotein Mdm2 (Homo sapiens, UniProt P04637+Q00987)"
measured_parameter = "pIC50"
value = 6.43

[[record]]
molecule = "Cc1ccc(F)cc1[C@@H]1NC(=O)C[C@H](c2ccccc2OC(C)(C)C(=O)N2CCC(F)(F)CC2)[C@@]12C(=O)Nc1cc(Cl)ccc12"
experimental_target = "Tumour suppressor p53/oncoprotein Mdm2 (Homo sapiens, UniProt P04637+Q00987)"
measured_parameter = "pIC50"
value = 7.27

[[record]]
molecule = "COc1cc(C(=O)N(C)[C@@H](Cc2c[nH]c3ccccc23)C(=O)N2CCN(c3ccc([N+](=O)[O-])cc3)CC2)c([N+](=O)[O-])cc1OC"
experimental_target = "Tumour suppressor p53/oncoprotein Mdm2 (Homo sapiens, UniProt P04637+Q00987)"
measured_parameter = "pIC50"
value = 7.52

[[record]]
molecule = "COC(=O)c1cccc(S(=O)(=O)N2c3ccc(C(=O)N4CCN(C)CC4)c(=O)n3[C@@H](c3ccc(Cl)cc3)[C@H]2c2ccc(Cl)cc2)c1"
experimental_target = "Tumour suppressor p53/oncoprotein Mdm2 (Homo sapiens, UniProt P04637+Q00987)"
measured_parameter = "pIC50"
value = 6.34

[[record]]
molecule = "C=C(CC)[C@H]1N2CC(=O)N(CCCN(C)C)N=C2C[C@@H](c2cccc(Cl)c2)[C@]12C(=O)Nc1cc(Cl)ccc12"
experimental_target = "Tumour suppressor p53/oncoprotein Mdm2 (Homo sapiens, UniProt P04637+Q00987)"
measured_parameter = "pIC50"
value = 7.00

[[record]]
molecule = "Cc1ccc(CN2C(=O)c3ccccc3C2(O[C@H]2C=C[C@@H](O)C2)c2ccc(Cl)cc2)cc1 (stereo partly drawn)"
experimental_target = "Tumour suppressor p53/oncoprotein Mdm2 (Homo sapiens, UniProt P04637+Q00987)"
measured_parameter = "pIC50"
value = 5.85

[[record]]
molecule = "CC(C)C1=C(C(=O)N2C[C@H](F)C[C@H]2C(=O)N2CCNC3(CC3)C2)SC2=N[C@@](C)(c3ccc(Cl)nc3)[C@@H](c3ccc(Cl)c(F)c3)N21"
experimental_target = "Tumour suppressor p53/oncoprotein Mdm2 (Homo sapiens, UniProt P04637+Q00987)"
measured_parameter = "pIC50"
value = 8.55

